The molecules below have reported pKi for Abl (Homo sapiens, UniProt P00519).
pKi here: minus log base 10 of the concentration, concentration in moles per litre.

What the record says about Cc1cccc(F)c1-c1cc(N2CCC[C@H](N(C)C)C2)c2cc(N)ncc2c1 [Example 82] : pKi is 7.98

Per the record, CN[C@H]1CCN(c2cc(-c3c(C)cccc3F)cc3cnc(N)cc23)C1 [Example 16] has pKi of 7.38

// field: pKi; key: Cc1cccc(F)c1-c1cc(NC[C@H]2CCNC2)c2cc(N)ncc2c1 [Example 9] ; value = 9.16

Data point: Cc1cccc(F)c1-c1cc(NC2CNC2)c2cc(N)ncc2c1 [Example 3] ; pKi = 7.69

For record Cc1cccc(F)c1-c1cc(N2CC[C@H](N(C)C)C2)c2cc(N)ncc2c1 [Example 59] the listed pKi is 6.68

Looking up CCN1CCC(Nc2cc(-c3c(C)cccc3F)cc3cncnc23)CC1 [Example 126] , I see its pKi listed as 7.03

pKi measured on Cc1cccc(F)c1-c1cc2cnc(N)cc2c(NC2CCN(C)CC2)c1F [Example 135] = 8.10

Form field pKi, entry CC(=O)N[C@H]1CCN(c2cc(-c3c(C)cccc3F)cc3cnc(N)cc23)C1 [Example 112] : 6.91

The value of pKi measured for the molecule CNC[C@@H]1CCCN(c2cc(-c3c(C)cccc3F)cc3cnc(N)cc23)C1 [Example 22] turned out to be 7.33

Per the records, this molecule ( Cc1cccc(Cl)c1-c1ccc2c(C(=O)N[C@@H]3CCNC3)c(N)ncc2c1 [Example 42] ) has pKi equal to 6.47

GET /value?item= CNC1CCN(c2cc(-c3c(C)cccc3F)cc3cnc(N)cc23)CC1 [Example 15] &field=pKi returns 7.71

Entry Cc1cccc(F)c1-c1cc(NC2CCNCC2)c2nc(N)ncc2c1 [Example 124] — recorded pKi = 8.21

// pKi value for Cc1cccc(Cl)c1-c1cc(NC2CCN(C)CC2)c2ccncc2c1 [Example 66] : 7.23

get_value(item= Cc1cccc(F)c1-c1cc(NCC2CCN(C)CC2)c2cc(N)ncc2c1 [Example 71] , readout=pKi) returns 7.81

For record CNc1cc2c(NC3CCNCC3)cc(-c3c(C)cccc3F)cc2cn1 [Example 27] the listed pKi is 7.64

Measured pKi of Cc1cccc(Cl)c1-c1cc(NC2CCNCC2)c2nc(N)ncc2c1 [Example 137] : 7.65
